Measured Target: T1, Human IL2Rγ extracellular domain expressed with a C-terminal myc-myc-hexahistidine tag (human)
T1 construct: also called hIL-2Rg-MMH; hIL-2RG-MMH
T1 chain: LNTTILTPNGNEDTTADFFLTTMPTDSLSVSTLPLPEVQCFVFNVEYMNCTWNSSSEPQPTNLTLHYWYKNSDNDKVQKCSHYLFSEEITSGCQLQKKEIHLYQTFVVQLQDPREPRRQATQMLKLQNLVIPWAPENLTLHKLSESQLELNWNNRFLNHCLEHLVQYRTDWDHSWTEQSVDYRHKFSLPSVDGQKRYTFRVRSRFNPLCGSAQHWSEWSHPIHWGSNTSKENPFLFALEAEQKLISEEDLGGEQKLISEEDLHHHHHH
Protocol Description: SPR Biacore 4000, mAb captured by anti-hFc, HBS-ET, 25C
Would you mind telling me the reported 100 nM Ag Bound of each entry?
Give the value, in units of RU, as a plain number.

Query: Quick one: 100 nM Ag Bound of H4H12899P (antibody, human IgG4 S228P, kappa, V domains shown, anti-IL2Rγ monoclonal antibody expressed with human IgG4 Fc) VH: QVQLVESGGDLVKPGGSLRLSCATSGFTFSDFYMTWIRQAPGKGLEWISYISNSGSIVKYADSVKGRFTISRDNAKNSLYLQMNSLRAEDTAIYYCARFYGDRWGQGTLVTVSS VL: DIQLTQSPSFLSASVGDRVTITCWASQGISTFLAWYQQKPGKAPKLLIYAASTLQSGVPSRFSGSGSGTDFTLTISSLQPEDFATYHCQQLNNYPWTFGQGTKVEIKR ?
Response: 61

Query: Quick one: 100 nM Ag Bound of H4H12884P (antibody, human IgG4 S228P, kappa, V domains shown, anti-IL2Rγ monoclonal antibody expressed with human IgG4 Fc) VH: QVQLQESGPGLVKPSQTLSLTCTVSGGSISSGGYYWSWIRQHPGKGLEWIGFIYYSGKTYYNPSLKSRLTISVDTSKSQFSLKLRSVTAADTAVYYCARLGYTNSAGWFDPWGQGTLVTVSS VL: DIQMTQSPSSLSASVGDRVTITCRASQSISSYLNWYQQKPGKAPNLLIYAASSLQSGVPSRFSGSGSGTDFTLTISSLQPEDLATYYCQQSYTTPFTFGPGTKVDIKR ?
Response: 84

Query: Quick one: 100 nM Ag Bound of H4H12863P (antibody, human IgG4 S228P, kappa, V domains shown, anti-IL2Rγ monoclonal antibody expressed with human IgG4 Fc) VH: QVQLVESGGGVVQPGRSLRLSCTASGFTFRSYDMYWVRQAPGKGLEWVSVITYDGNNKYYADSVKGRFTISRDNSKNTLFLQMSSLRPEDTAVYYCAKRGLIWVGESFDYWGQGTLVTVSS VL: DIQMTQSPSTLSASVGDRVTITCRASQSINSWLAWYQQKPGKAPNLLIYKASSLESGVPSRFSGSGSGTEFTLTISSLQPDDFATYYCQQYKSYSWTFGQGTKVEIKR ?
Response: 91
